# Test system: NCI-H522 lung
# measurement.protocol: NCI tumour cell line growth inhibition, 48 h; in the data active = GI50 below about 0.43 µM; inactive = the rest
Could you please pick one outcome from this set? label 1 for active, label 0 for inactive

Some solved entries appear below for comparison.
Request: Please let me know the test result on file for C=C1C(=O)O[C@H]2[C@H]1CC/C(CNC(=O)/C=C/c1ccc(Cl)cc1Cl)=C\CC[C@@]1(C)O[C@@H]21 .
Response: label 0

Request: What was the test verdict on CCCCN(CCCC)CCC(O)c1cc2ccc(C(F)(F)F)cc2c2cc(C(F)(F)F)ccc12 (stereo not given) ?
Response: label 0

Request: Dear colleague, could you share the recorded outcome for CCc1nc(N)nc(N)c1C#CC(C)c1cc(-c2ccnc(C)c2)c2oc(C)nc2c1 (stereo not given) when you have a moment?
Response: label 1

Request: What did this assay record as the result for O=C1C=C(OCCCl)C(=O)c2c(O)ccc(O)c21 ?
Response: label 0

Request: Which result was noted for this compound in the test: O=c1[nH]nc(-c2ccccc2)c2c(-c3ccccc3)onc12
Response: label 0

Request: How was COC(=O)Nc1nc2ccc(S(=O)(=O)c3ccc(NC(=O)Nc4cc(C(F)(F)F)ccc4F)cc3)cc2[nH]1 classified in this test?
Response: label 0

Request: Tell me the recorded outcome of this test for Nc1ccccc1C#C/C=C\C#Cc1ccccc1F .
Response: label 0

Request: # lookup: test call for COc1ccc(CN=C(N)N=C(N)N)cc1OC
Response: label 0

Request: I would be grateful if you could indicate the recorded call for O=C(Cn1c2ccccc2c2ccncc21)N/N=C\c1ccc2ccccc2c1 .
Response: label 0

Moving on to another compound below.
Request: Call for entry Cc1ccc(-c2c3c(N)c4c(nc3nc3c2c(C)nn3-c2ccccc2)CCC4)cc1 :
Response: label 0

====

# Tested on: A498 renal
# measurement.protocol: NCI tumour cell line growth inhibition, 48 h
Readings of TGI for the listed compounds

Request: Recorded TGI of O=C(CC(=O)c1ccccc1)C(=O)NC12CC3CC(CC(C3)C1)C2 , please.
Response: > 100 µM

New cases:
Request: What measured TGI goes with CCOC(=O)C1Oc2ccc([N+](=O)[O-])cc2C1(C)O (configuration not stated) ?
Response: > 100 µM

Request: Please look up its TGI: O=C1NC(c2ccccc2)N=C2Oc3ccccc3C=C12 (configuration not stated)
Response: > 81.8 µM

Request: Look at this compound and give its reported TGI. O=C(CC(=O)C1CCOC1=O)C(=O)Nc1ccc(Cl)cc1 (configuration not stated)
Response: > 100 µM

Request: What value of TGI has been recorded for this entry: COc1cc2nncc(SCc3ccc(Cl)c(Cl)c3)c2cc1OC
Response: > 100 µM

Request: Tell me the measured TGI of C#CC(O)Cc1ccc(OC)c2occc12 (configuration not stated) , please.
Response: > 100 µM

Request: Fill in: TGI of CC1=NN(c2ccccc2)C(=O)C1N=Nc1ccc(S(N)(=O)=O)cc1 (configuration not stated) is ___
Response: > 100 µM

Request: Can you look up the measured TGI of Cc1nc2nn(C)cc2c(=O)n1/N=C/c1ccccc1 for me?
Response: > 100 µM

====

# System: HCT-15 colon
# measurement.protocol: NCI tumour cell line growth inhibition, 48 h
recorded.endpoint: TGI

Request: For the compound Cc1cc(C(O)CNC(C)CCn2cnc3c2c(=O)n(C)c(=O)n3C)ccc1O (stereo not drawn) , what TGI is on record?
Response: > 100 µM

Request: Which measured TGI value corresponds to Cc1ccc(F)c2c(=O)cc(-c3ccccc3)[nH]c12 ?
Response: > 100 µM

We next turn to a different compound, shown below.
Request: Can you share its TGI? I mean this compound: NS(=O)(=O)c1ccc(N2N=C(c3cccs3)CC2c2ccccc2O)cc1 (stereo not drawn)
Response: > 33.3 µM
